PROTOCOL SUMMARY: stability test in liver microsomes (human)
Format: in vitro ADME
RECORDED CONDITIONS: Human liver microsomes, 60 min
MEASURED PARAMETER: % remaining (60 min) (%)
Write the number in % without appending the unit.

% remaining (60 min) measured on Cc1cc(C[C@@H](NC(=O)N2CCC(c3cc4ccccc4[nH]c3=O)CC2)C(=O)N2CCN(C3CCN(C)CC3)CC2)cc2cn[nH]c12 [Zavegepant, zavegepant, reference compound] = 57.5

Recorded % remaining (60 min) (molecule [2H]C([2H])([2H])N1CCC(N2CCN(C(=O)[C@@H](Cc3cc(C)c4[nH]ncc4c3)NC(=O)N3CCC(c4cc5c([nH]c4=O)SCC5)CC3)CC2)CC1 ): 115

Consider Cc1cc(C[C@@H](NC(=O)N2CCC(c3cc4c([nH]c3=O)SCC4)CC2)C(=O)N2CCN(C3CCN(C)CC3)CC2)cc2cn[nH]c12 . Its measured % remaining (60 min) is 85.8

# % remaining (60 min) (molecule: Cc1cc(C[C@@H](NC(=O)N2CCC(c3cc4c([nH]c3=O)SCCC4)CC2)C(=O)N2CCN(C3CCN(C)CC3)CC2)cc2cn[nH]c12 ) is 131

###

PROTOCOL SUMMARY: PK properties in monkeys with or without alkyl glycoside, intravenous route and nasal spray
Format: in vivo, cynomolgus monkey
RECORDED CONDITIONS: cynomolgus monkey, plasma, 1 mg/kg, cynomolgus monkeys, IN@1 mg/kg (Solvent 2, 0.2% dodecyl-β-D-maltoside); read-out: Bioavailability F%
MEASURED PARAMETER: bioavailability

# bioavailability (compound: Cc1cc(C[C@@H](NC(=O)N2CCC(c3cc4c([nH]c3=O)SCCC4)CC2)C(=O)N2CCN(C3CCN(C)CC3)CC2)cc2cn[nH]c12 ) is 29.8%

###

PROTOCOL SUMMARY: PK properties in monkeys with or without alkyl glycoside, intravenous route and nasal spray
Format: in vivo, cynomolgus monkey
RECORDED CONDITIONS: male, cynomolgus monkey, plasma, other: intranasal (nasal spray), 1 mg/kg, cynomolgus monkeys, IN@1 mg/kg (Solvent 1, no DDM); read-out: Time to peak Tmax
MEASURED PARAMETER: Tmax (h)
Please give a number only; it is taken to be in h.

Just so you know, measured Tmax for Cc1cc(C[C@@H](NC(=O)N2CCC(c3cc4c([nH]c3=O)SCC4)CC2)C(=O)N2CCN(C3CCN(C)CC3)CC2)cc2cn[nH]c12 [Example 8] came out at 1

###

PROTOCOL SUMMARY: PK properties in monkeys with or without alkyl glycoside, intravenous route and nasal spray
Format: in vivo, cynomolgus monkey
RECORDED CONDITIONS: cynomolgus monkey, plasma, iv, 0.5 mg/kg, cynomolgus monkeys, IV@0.5 mg/kg; read-out: Half-life period t1/2 (converted)
MEASURED PARAMETER: half-life (h)
Write the value in h as a bare number.

Short answer for Cc1cc(C[C@@H](NC(=O)N2CCC(c3cc4c([nH]c3=O)SCCC4)CC2)C(=O)N2CCN(C3CCN(C)CC3)CC2)cc2cn[nH]c12 : half-life was 4.98

###

PROTOCOL SUMMARY: PK properties in monkeys with or without alkyl glycoside, intravenous route and nasal spray
Type: in vivo, cynomolgus monkey
RECORDED CONDITIONS: cynomolgus monkey, plasma, 1 mg/kg, cynomolgus monkeys, IN@1 mg/kg (Solvent 2, 0.2% dodecyl-β-D-maltoside); read-out: Time to peak Tmax
Experimental: Species: cynomolgus monkey, male, 2-5 kg. Source: Ankai Yibo (Zhanjiang) Biotechnology Co., Ltd., Laboratory Animal Production License No.: SCXK (Yue) 2019-0046. Quantity: 3 cynomolgus monkeys were intravenously administered and 3 cynomolgus monkeys were administered by a nasal spray. […] A concentration of a specified compound in plasma was determined by LC-MS/MS, and main pharmacokinetic parameters were calculated by a Winnolin 8.3 non-compartmental model. […]
MEASURED PARAMETER: Tmax

The reported Tmax of the compound Cc1cc(C[C@@H](NC(=O)N2CCC(c3cc4c([nH]c3=O)SCCC4)CC2)C(=O)N2CCN(C3CCN(C)CC3)CC2)cc2cn[nH]c12 [Example 6] was ~10.2 min

###

PROTOCOL SUMMARY: PK properties in monkeys with or without alkyl glycoside, intravenous route and nasal spray
Format: in vivo, cynomolgus monkey
RECORDED CONDITIONS: cynomolgus monkey, plasma, 1 mg/kg, cynomolgus monkeys, IN@1 mg/kg (Solvent 2, 0.2% dodecyl-β-D-maltoside); read-out: Half-life period t1/2 (converted)
MEASURED PARAMETER: half-life (min)
// note: answer is a bare numeric in min

compound Cc1cc(C[C@@H](NC(=O)N2CCC(c3cc4c([nH]c3=O)SCCC4)CC2)C(=O)N2CCN(C3CCN(C)CC3)CC2)cc2cn[nH]c12 [Example 6] , half-life observed: 334

###

PROTOCOL SUMMARY: PK properties in SD rats with or without 0.2% alkyl glycoside (DDM)
Assay type: in vivo
RECORDED CONDITIONS: Sprague-Dawley, rat, in vivo, inhaled or intranasal, 0.2% DDM
Assign Tmax to each entry below.

So, Cc1cc(C[C@@H](NC(=O)N2CCC(c3cc4ccccc4[nH]c3=O)CC2)C(=O)N2CCN(C3CCN(C)CC3)CC2)cc2cn[nH]c12 [Zavegepant, zavegepant, reference compound] ? Its Tmax was 12.5 min

Item: Cc1cc(C[C@@H](NC(=O)N2CCC(c3cc4c([nH]c3=O)SCC4)CC2)C(=O)N2CCN(C3CCN(C)CC3)CC2)cc2cn[nH]c12 | Tmax: 10 min

###

PROTOCOL SUMMARY: PK properties in monkeys with or without alkyl glycoside, intravenous route and nasal spray
Type: in vivo, cynomolgus monkey
RECORDED CONDITIONS: male, cynomolgus monkey, plasma; cynomolgus monkeys, IV@0.5 mg/kg; read-out: Area under curve AUC
MEASURED PARAMETER: AUC (ng·h/mL)
Field format: number, assumed ng·h/mL, no unit text.

# compound Cc1cc(C[C@@H](NC(=O)N2CCC(c3cc4c([nH]c3=O)SCC4)CC2)C(=O)N2CCN(C3CCN(C)CC3)CC2)cc2cn[nH]c12 [Example 8] ; its AUC = 924

Data credit: patent EP4781986A1
